test-system: anti-cocaine antibody (present antibodies)
assay-text: Competition assays with constant [3H]-cocaine and nonradioactive competitors at the antibody
assay-setup: competition with [3H]-cocaine at antibody; read-out: binding inhibition constant (Ki)
# maps each entry to its Ki

compound	Ki [nM]
COC(=O)[C@@H]1[C@H]2CC[C@@H](C[C@@H]1O)N2C [ecgonine methyl ester]	5200
CN1[C@H]2CC[C@@H]1[C@@H](C(=O)O)[C@@H](OC(=O)c1ccccc1)C2 [benzoylecgonine]	43
CCOC(=O)[C@@H]1C2CCC(C[C@@H]1OC(=O)c1ccccc1)N2C (stereo partly shown) [cocaethylene]	3.4
CN1[C@H]2CC[C@@H]1[C@@H](C(=O)O)[C@@H](O)C2 [ecogonine]	95000
